B1: glmS ribozyme (parent)
chain: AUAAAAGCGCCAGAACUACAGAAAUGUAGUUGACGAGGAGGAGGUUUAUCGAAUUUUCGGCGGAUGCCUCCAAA

Variants of: B1
Assay Comment: self-cleavage kobs at 10000 uM GlcN6P; higher = faster cleavage; RNA array
Condition Notes: with glucosamine-6-phosphate
Fewer inactive variants are shown than the library holds.
Parameter: self-cleavage kobs at 10000 uM GlcN6P (s⁻¹)
One number for each entry, in s⁻¹.

U47A C71G : 0.000682
G44A U65A : 0.000139

Each variant below has a recorded value; state its self-cleavage kobs at 10000 uM GlcN6P.
1. A12U G29A U31C
2. U45G A53G
3. U57G C67G
4. U65G C68U

1. 0.000943
2. 0.00681
3. 2.33e-05
4. 0.00155
